Target: recombinant human PD-L1 (Sino Biological Inc.) (human, UniProt Q9NZQ7 19-239)
Sequence (Q9NZQ7 19-239 limits assumed): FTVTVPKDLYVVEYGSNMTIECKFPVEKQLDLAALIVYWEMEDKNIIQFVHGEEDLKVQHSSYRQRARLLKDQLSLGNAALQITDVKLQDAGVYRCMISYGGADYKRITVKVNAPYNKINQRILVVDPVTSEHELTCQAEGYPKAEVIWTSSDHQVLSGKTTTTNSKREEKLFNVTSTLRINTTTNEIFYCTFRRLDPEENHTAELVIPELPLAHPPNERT
Assay: ELISA, human PD-L1 coated
Experimental: A 96-well high-adsorption ELISA plate was coated with 1 μg/mL of the recombinant human PD-L1 (Sino Biological Inc.) at 100 μL per well using carbonate buffer solution, pH=9.6 at 4° C. overnight. The plate was washed 5 times with PBST, and then blocked using PBST with 1% BSA, 300 μL/well, and incubated at 25° C. for 1 hour, and then washed 5 times with PBST. […] The absorbance at 450 nm was read on a microplate reader.
Listed below: EC50 values for each entry.
Form entry: enter the amount, then its unit.

1. humanized anti-human PD-L1 monoclonal antibody VLS10-VHS7 P3 (antibody, human IgG1, kappa, V domains shown) VH: QVQLVQSGAEVKKPGSSVKVSCTASGFNIEDTYIHWVRQAPGQGLEWMGRIDPANANTKYDPKFQGRVTITADTSTNTAYMELSSLRSEDTAVYYCGRGLGAWFAYWGQGTLVTVSS VL: DIQMTQSPSSLSASVGDRVTITCKASQDVHTAVAWIHQKPGKAPKLLIYSASNRYTGVPSRFSGSGSGTDFTFTISSLQPEDIATYYCQQHYITPLTFGQGTKLEIKR :: 63 pM
2. humanized anti-human PD-L1 monoclonal antibody VLS10-VHS7 P1 (antibody, human IgG1, kappa, V domains shown) VH: QVQLVQSGAEVKKPGSSVKVSCTASGFNIEDTYIHWVRQAPGQGLEWMGRIDPAQGNTKYDPKFQGRVTITADTSTNTAYMELSSLRSEDTAVYYCGRGLGAWFAYWGQGTLVTVSS VL: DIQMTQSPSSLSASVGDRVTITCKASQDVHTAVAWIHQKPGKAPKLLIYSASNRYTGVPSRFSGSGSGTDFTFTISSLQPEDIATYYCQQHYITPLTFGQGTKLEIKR :: 67 pM
3. humanized anti-human PD-L1 monoclonal antibody VLS15-VHS12 P3 (antibody, human IgG1, kappa, V domains shown) VH: EVQLVQSGAEVKKPGSSVKVSCKASGFNIEDTYIHWVRQAPGQGLEWMGRIDPANANTKYDPKFQGRVTITADTSTNTAYMELSSLRSEDTAVYYCGRGLGAWFAYWGQGTLVTVSS VL: DIQMTQSPSSLSASVGDRVTITCKASQDVHTAVAWIQQKPGKSPKLLIYSASNRYTGVPSRFSGSGSGTDFTFTISSLQPEDIATYYCQQHYITPLTFGQGTKLEIKR :: 75 pM

Here is the next item to consider.
Record request: EC50 value, item humanized anti-human PD-L1 monoclonal antibody VLS10-VHS7 P2 (antibody, human IgG1, kappa, V domains shown) VH: QVQLVQSGAEVKKPGSSVKVSCTASGFNIEDTYIHWVRQAPGQGLEWMGRIDPASGNTKYDPKFQGRVTITADTSTNTAYMELSSLRSEDTAVYYCGRGLGAWFAYWGQGTLVTVSS VL: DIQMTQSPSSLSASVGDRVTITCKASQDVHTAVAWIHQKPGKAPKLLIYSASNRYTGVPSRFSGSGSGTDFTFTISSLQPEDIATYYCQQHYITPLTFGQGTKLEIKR
59 pM
